target: C-X-C chemokine receptor type 6 (Homo sapiens) (UniProt O00574); assay: potency against CXCR6 with APJ panel – cell-based, beta-arrestin, DiscoveRx, uHTS hits, dose response (AID 624129); conditions: CXCR6 beta-arrestin (DiscoveRx) antagonist cell assay, CXCR6, run 1, dose range 2
Sequence (O00574 whole entry, looked up): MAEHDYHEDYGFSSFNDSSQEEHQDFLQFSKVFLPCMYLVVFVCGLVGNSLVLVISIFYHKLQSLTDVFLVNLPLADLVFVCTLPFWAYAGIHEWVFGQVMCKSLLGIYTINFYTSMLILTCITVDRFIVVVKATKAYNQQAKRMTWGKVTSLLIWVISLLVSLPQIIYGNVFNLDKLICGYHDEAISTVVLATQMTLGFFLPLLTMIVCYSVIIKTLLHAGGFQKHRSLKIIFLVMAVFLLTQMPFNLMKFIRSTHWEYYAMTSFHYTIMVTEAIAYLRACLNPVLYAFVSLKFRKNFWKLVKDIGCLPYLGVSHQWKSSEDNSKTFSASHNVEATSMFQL
property.measured: pIC50
Give only the number. pIC50 is defined as minus log10 of concentration in molar units.

So the reported pIC50 for `CCc1ccccc1OCC(=O)Nc1nc(-c2cccnc2)cs1` , on C-X-C chemokine receptor type 6 (Homo sapiens) (UniProt O00574), turned out to be 5.11

So the reported pIC50 for CCOC(=O)C1CCCN(c2c(C(=O)c3ccccc3)cnc3ccc(OC)cc23)C1 (configuration not stated) , on C-X-C chemokine receptor type 6 (Homo sapiens) (UniProt O00574), turned out to be 4.75

So the reported pIC50 for `CCCC(=O)OCCNc1cc(SCc2ccco2)c2nonc2c1[N+](=O)[O-]` , on C-X-C chemokine receptor type 6 (Homo sapiens) (UniProt O00574), turned out to be 4.95

So the reported pIC50 for `COc1ccc(OC)c(NC(=O)c2nc(S(=O)(=O)Cc3ccccc3)ncc2Cl)c1` , on C-X-C chemokine receptor type 6 (Homo sapiens) (UniProt O00574), turned out to be 5.05

So the reported pIC50 for `Cc1ccc(NC(=S)NNc2ncc(C(F)(F)F)cc2Cl)cc1` , on C-X-C chemokine receptor type 6 (Homo sapiens) (UniProt O00574), turned out to be 4.98

So the reported pIC50 for CC(C)N=C1CCCC1C(=S)SSC(=S)C1CCCC1=NC(C)C (configuration not stated) , on C-X-C chemokine receptor type 6 (Homo sapiens) (UniProt O00574), turned out to be 5.39

So the reported pIC50 for CC(Oc1ccc(Br)cc1)C(=O)Nc1nc(-c2ccccn2)cs1 (configuration not stated) , on C-X-C chemokine receptor type 6 (Homo sapiens) (UniProt O00574), turned out to be 5.37

So the reported pIC50 for `CCCCCCCCn1sccc1=O` , on C-X-C chemokine receptor type 6 (Homo sapiens) (UniProt O00574), turned out to be 5.17

So the reported pIC50 for `C/C(=N\NC(=O)Cn1c(-c2ccccn2)nc2ccccc21)c1ccccc1` , on C-X-C chemokine receptor type 6 (Homo sapiens) (UniProt O00574), turned out to be 5.01

So the reported pIC50 for CC(Oc1ccc(F)cc1)C(=O)Nc1nc(-c2ccccn2)cs1 (configuration not stated) , on C-X-C chemokine receptor type 6 (Homo sapiens) (UniProt O00574), turned out to be 5.22

So the reported pIC50 for `COc1cccc(-c2nnc(NC(=O)c3ccc(Cl)s3)o2)c1` , on C-X-C chemokine receptor type 6 (Homo sapiens) (UniProt O00574), turned out to be 4.90

So the reported pIC50 for `Fc1ccc(NC(=S)NNc2ncc(C(F)(F)F)cc2Cl)c(F)c1` , on C-X-C chemokine receptor type 6 (Homo sapiens) (UniProt O00574), turned out to be 4.95

So the reported pIC50 for `CCOC(=O)c1cc([N+](=O)[O-])c([N+](=O)[O-])cc1NC(C)=O` , on C-X-C chemokine receptor type 6 (Homo sapiens) (UniProt O00574), turned out to be 4.83

So the reported pIC50 for `O=C(NC(=S)Nc1ccccc1O)c1cncc(Br)c1` , on C-X-C chemokine receptor type 6 (Homo sapiens) (UniProt O00574), turned out to be 4.61

So the reported pIC50 for `COC(=O)c1cc([N+](=O)[O-])c(-n2cncn2)c([N+](=O)[O-])c1` , on C-X-C chemokine receptor type 6 (Homo sapiens) (UniProt O00574), turned out to be 4.86

So the reported pIC50 for `CCOc1ccccc1NC(=O)c1nc(S(=O)(=O)Cc2ccccc2)ncc1Cl` , on C-X-C chemokine receptor type 6 (Homo sapiens) (UniProt O00574), turned out to be 4.95

So the reported pIC50 for `CCOC(=O)c1c(-c2ccc(C)o2)csc1NC(=S)NC(=O)N(C)C` , on C-X-C chemokine receptor type 6 (Homo sapiens) (UniProt O00574), turned out to be 5.04

So the reported pIC50 for `O=C(C=Cc1ccccn1)c1ccccc1O` , on C-X-C chemokine receptor type 6 (Homo sapiens) (UniProt O00574), turned out to be 4.86

So the reported pIC50 for `CC(=O)OCCCNc1cc(Sc2nc3ccccc3s2)c2nonc2c1[N+](=O)[O-]` , on C-X-C chemokine receptor type 6 (Homo sapiens) (UniProt O00574), turned out to be 5.09

So the reported pIC50 for `O=[N+]([O-])c1ccc(N/N=C/c2sc(N3CCOCC3)nc2-c2ccccc2)c(S(=O)(=O)Nc2ccccc2Cl)c1` , on C-X-C chemokine receptor type 6 (Homo sapiens) (UniProt O00574), turned out to be 4.56

So the reported pIC50 for `CN(CC(=O)Nc1cc(S(=O)(=O)N2CCCC2)ccc1Cl)Cc1cccs1` , on C-X-C chemokine receptor type 6 (Homo sapiens) (UniProt O00574), turned out to be 4.94

So the reported pIC50 for `C=CCOc1ccc(C=NNc2ccc(S(=O)(=O)Nc3ccccc3C(=O)O)cc2[N+](=O)[O-])cc1OC` , on C-X-C chemokine receptor type 6 (Homo sapiens) (UniProt O00574), turned out to be 4.53

So the reported pIC50 for `Cn1c(=O)n(C)c2cc([N+](=O)[O-])c(N3CCN(C(=O)c4cccc(Cl)c4)CC3)cc21` , on C-X-C chemokine receptor type 6 (Homo sapiens) (UniProt O00574), turned out to be 4.95

So the reported pIC50 for `Cc1cccc(NC(=S)N/N=C/c2ccc([N+](=O)[O-])s2)c1` , on C-X-C chemokine receptor type 6 (Homo sapiens) (UniProt O00574), turned out to be 5.02

So the reported pIC50 for `CS(=O)(=O)c1ccc(C(=O)OCc2nnc(-c3ccccc3)o2)cc1[N+](=O)[O-]` , on C-X-C chemokine receptor type 6 (Homo sapiens) (UniProt O00574), turned out to be 5.49

So the reported pIC50 for `N#CC(C#N)=C1C=CC=CN1/C(=C\c1ccco1)C(=O)c1ccc(-c2ccccc2)cc1` , on C-X-C chemokine receptor type 6 (Homo sapiens) (UniProt O00574), turned out to be 4.91

So the reported pIC50 for C=C1C(=O)[C@]23C[C@H]1CCC2[C@@]1(C)C(C[C@@H]3O)[C@](C)(C(=O)OC)CC[C@@H]1OC(C)=O (some centres not stated) , on C-X-C chemokine receptor type 6 (Homo sapiens) (UniProt O00574), turned out to be 5.06

So the reported pIC50 for CCn1c(=O)cc(NC2=NCC(C)CN2c2cccc(Cl)c2)n(C)c1=O (configuration not stated) , on C-X-C chemokine receptor type 6 (Homo sapiens) (UniProt O00574), turned out to be 4.72

So the reported pIC50 for `Cc1ccc(NCC(=O)c2ccc(C)cc2)cc1` , on C-X-C chemokine receptor type 6 (Homo sapiens) (UniProt O00574), turned out to be 5.26

So the reported pIC50 for `CC(=O)Nc1nc2ccccc2n1CCOc1ccccc1Cl` , on C-X-C chemokine receptor type 6 (Homo sapiens) (UniProt O00574), turned out to be 5.06

So the reported pIC50 for `O=C1CN(C(=O)CSc2nc3cc(Cl)ccc3c(=O)n2Cc2ccccc2)c2ccccc2N1` , on C-X-C chemokine receptor type 6 (Homo sapiens) (UniProt O00574), turned out to be 5.02

So the reported pIC50 for `Nc1ccccc1C#CC(=O)c1ccccc1` , on C-X-C chemokine receptor type 6 (Homo sapiens) (UniProt O00574), turned out to be 4.85

So the reported pIC50 for CC1=C(C)CC2C(C1)C(=O)c1ccc(Br)cc1S2(=O)=O (configuration not stated) , on C-X-C chemokine receptor type 6 (Homo sapiens) (UniProt O00574), turned out to be 4.43

So the reported pIC50 for `O=C(CSc1cccc2cccnc12)N1CCCC1` , on C-X-C chemokine receptor type 6 (Homo sapiens) (UniProt O00574), turned out to be 5.39

So the reported pIC50 for `Cc1[nH]n(-c2ccccc2)c(=S)c1C=NCCCN=Cc1c(C)[nH]n(-c2ccccc2)c1=S` , on C-X-C chemokine receptor type 6 (Homo sapiens) (UniProt O00574), turned out to be 5.97

So the reported pIC50 for `O=C(NCc1ccc2c(c1)OCO2)c1nc(S(=O)(=O)Cc2ccccc2F)ncc1Cl` , on C-X-C chemokine receptor type 6 (Homo sapiens) (UniProt O00574), turned out to be 4.81

So the reported pIC50 for CC(=O)OC1CCC2(C)C(CCC3C4CC=C(C(C)=O)C4(C)OC(=O)CC32)C1 (configuration not stated) , on C-X-C chemokine receptor type 6 (Homo sapiens) (UniProt O00574), turned out to be 4.65

So the reported pIC50 for `Cc1ccc(P(=O)(c2ccc(C)cc2)[C@@H](NC(c2ccccc2)c2ccccc2)c2ccccc2)cc1` , on C-X-C chemokine receptor type 6 (Homo sapiens) (UniProt O00574), turned out to be 4.77

So the reported pIC50 for O=C1C(Cc2ccccc2)Nc2ncnc(N3CCN(c4ccccc4)CC3)c2N1Cc1ccc(Br)cc1 (configuration not stated) , on C-X-C chemokine receptor type 6 (Homo sapiens) (UniProt O00574), turned out to be 5.85

So the reported pIC50 for `S=C(N/N=C/c1ccccc1)N1CCOCC1` , on C-X-C chemokine receptor type 6 (Homo sapiens) (UniProt O00574), turned out to be 5.35

So the reported pIC50 for `COc1cc(/C=C/c2ccc3cccc(OC)c3n2)c(OC(C)=O)c([N+](=O)[O-])c1` , on C-X-C chemokine receptor type 6 (Homo sapiens) (UniProt O00574), turned out to be 4.46

So the reported pIC50 for `O=C1C(=C(c2ccccc2)N2CCOCC2)Cc2ccccc21` , on C-X-C chemokine receptor type 6 (Homo sapiens) (UniProt O00574), turned out to be 5.00
